assay text: The drug is tested on the gut metagenome community of MV17 with ENA study accession number: PRJEB31790 and ENA sample accession number: SAMEA5537498 for biotransformation. The drug concentrations were measured over 9 timepoints collected between 0 and 24 hours of incubation by liquid-chromatography-coupled mass spectrometry (LC–MS)
Type: ADME
Design: dose 2 uM, timepoint 0, 1, 2, 4, 6, 8, 12, 18, 24 hours
experimental conditions: 2 µM

{"columns": ["compound", "Bacterial Biotransformation"],
 "data": [
  ["C#C[C@]1(OC(C)=O)CC[C@H]2[C@@H]3CCC4=CC(=O)CC[C@@H]4[C@H]3CC[C@@]21C [NORETHINDRONE ACETATE]", "Compound metabolized"],
  ["CC(=O)OCC(CCn1cnc2cnc(N)nc21)COC(C)=O", "Compound metabolized"],
  ["C[C@@H]1C[C@H]2[C@@H]3CCC4=CC(=O)C=C[C@]4(C)[C@@]3(F)[C@@H](O)C[C@]2(C)[C@@]1(O)C(=O)CO", "Compound NOT metabolized"],
  ["COc1ccc([C@@H]2Sc3ccccc3N(CCN(C)C)C(=O)[C@@H]2OC(C)=O)cc1", "Compound NOT metabolized"]
]}

----------
assay text: The drug is tested on Bacteroides ovatus strain: ATCC8483 for biotransformation. The drug concentrations were measured before and after a 12-h incubation by liquid-chromatography-coupled mass spectrometry (LC–MS)
experimental conditions: 2 µM
measurement name: Bacterial Biotransformation

Worked examples follow.
{"columns": ["compound", "measurement name", "recorded value"],
 "data": [
  ["COc1cc2nc(N(C)CCCNC(=O)C3CCCO3)nc(N)c2cc1OC (centres undefined) [ALFUZOSIN]", "Bacterial Biotransformation", "Compound NOT metabolized"],
  ["CCCCc1nc(Cl)c(CO)n1Cc1ccc(-c2ccccc2-c2nn[nH]n2)cc1 [LOSARTAN]", "Bacterial Biotransformation", "Compound NOT metabolized"],
  ["CC(C)(Oc1ccc(CCNC(=O)c2ccc(Cl)cc2)cc1)C(=O)O [BEZAFIBRATE]", "Bacterial Biotransformation", "Compound metabolized"],
  ["CCS(=O)(=O)CCn1c([N+](=O)[O-])cnc1C [TINIDAZOLE]", "Bacterial Biotransformation", "Compound metabolized"],
  ["CCN(CC)CCOC(=O)C(Cc1cccc2ccccc12)CC1CCCO1.O=C(O)C(=O)O (centres undefined) [NAFRONYL OXALATE]", "Bacterial Biotransformation", "Compound NOT metabolized"]
]}

QUERY: Dear colleague, please send me the reported Bacterial Biotransformation for CC(=O)SCC(Cc1ccccc1)C(=O)NCC(=O)OCc1ccccc1 (centres undefined) [RACECADOTRIL] when you can.
RESULT: Compound metabolized

----------
assay text: The drug is tested on Bacteroides sp. WH2 strain: WH2 for biotransformation. The drug concentrations were measured before and after a 12-h incubation by liquid-chromatography-coupled mass spectrometry (LC–MS)
experimental conditions: bacteroides sp. wh2, 12 h, 2 µM
measurement name: Bacterial Biotransformation

{"columns": ["molecule", "Bacterial Biotransformation"],
 "data": [
  ["C#C[C@]1(O)CC[C@H]2[C@@H]3CCC4=CC(=O)CC[C@@H]4[C@H]3CC[C@@]21CC [LEVONORGESTREL]", "Compound metabolized"],
  ["CC(C)(C(=O)O)c1ccc(C(O)CCCN2CCC(C(O)(c3ccccc3)c3ccccc3)CC2)cc1 (configuration not stated) [FEXOFENADINE]", "Compound NOT metabolized"],
  ["CN(C)CCc1c[nH]c2ccc(Cn3cncn3)cc12.O=C(O)c1ccccc1 [RIZATRIPTAN BENZOATE]", "Compound NOT metabolized"],
  ["NC12CC3CC(CC(C3)C1)C2 [AMANTADINE]", "Compound NOT metabolized"],
  ["CC(N)C12CC3CC(CC(C3)C1)C2 (configuration not stated) [RIMANTADINE]", "Compound NOT metabolized"],
  ["CCN(CC)CCNC(=O)c1cc(Cl)c(N)cc1OC [METOCLOPRAMIDE]", "Compound NOT metabolized"],
  ["CC(C(=O)O)c1ccc2c(c1)Cc1cccnc1O2 (configuration not stated) [PRANOPROFEN]", "Compound metabolized"],
  ["CC(CN1c2ccccc2Sc2ccccc21)N(C)C (configuration not stated) [PROMETHAZINE]", "Compound NOT metabolized"],
  ["C#C[C@]1(O)CC[C@H]2[C@@H]3CCC4=Cc5oncc5C[C@]4(C)[C@H]3CC[C@@]21C [DANAZOL]", "Compound metabolized"],
  ["CN1CCc2cccc3c2[C@H]1Cc1ccc(O)c(O)c1-3 [APOMORPHINE]", "Compound NOT metabolized"]
]}

QUERY: Dear colleague, please send me the reported Bacterial Biotransformation for COc1cc2nc(N3CCN(C(=O)C4CCCO4)CC3)nc(N)c2cc1OC (configuration not stated) [TERAZOSIN] when you can.
RESULT: Compound NOT metabolized

QUERY: Dear colleague, please send me the reported Bacterial Biotransformation for CC(C)(C)NC[C@H](O)COc1ccccc1C1CCCC1.CC(C)(C)NC[C@H](O)COc1ccccc1C1CCCC1.O=S(=O)(O)O [PENBUTOLOL SULFATE] when you can.
RESULT: Compound NOT metabolized

QUERY: Dear colleague, please send me the reported Bacterial Biotransformation for O=C(O[C@H]1C[C@H]2CC[C@@H](C1)[N+]21CCCC1)C(O)(c1ccccc1)c1ccccc1.[Cl-] [TROSPIUM CHLORIDE] when you can.
RESULT: Compound NOT metabolized

QUERY: Dear colleague, please send me the reported Bacterial Biotransformation for Br.CN1CCC[C@@H]1Cc1c[nH]c2ccc(CCS(=O)(=O)c3ccccc3)cc12 [ELETRIPTAN HYDROBROMIDE] when you can.
RESULT: Compound NOT metabolized

QUERY: Dear colleague, please send me the reported Bacterial Biotransformation for O=C1[C@H](CC[C@H](O)c2ccc(F)cc2)[C@@H](c2ccc(O)cc2)N1c1ccc(F)cc1 [EZETIMIBE] when you can.
RESULT: Compound NOT metabolized

QUERY: Dear colleague, please send me the reported Bacterial Biotransformation for COc1ccc(Cc2nccc3cc(OC)c(OC)cc23)cc1OC [PAPAVERINE] when you can.
RESULT: Compound NOT metabolized

QUERY: Dear colleague, please send me the reported Bacterial Biotransformation for CN(C)CC(c1ccc(O)cc1)C1(O)CCCCC1.O=C(O)CCC(=O)O (configuration not stated) [DESVENLAFAXINE SUCCINATE] when you can.
RESULT: Compound NOT metabolized

----------
assay text: The drug is tested on Collinsella aerofaciens strain: ATCC25986 for biotransformation. The drug concentrations were measured before and after a 12-h incubation by liquid-chromatography-coupled mass spectrometry (LC–MS)
experimental conditions: 2 µM
measurement name: Bacterial Biotransformation

Worked examples follow.
{"columns": ["compound", "recorded value"],
 "data": [
  ["CC(=O)OCC(=O)NCCCOc1cccc(CN2CCCCC2)c1 [ROXATIDINE ACETATE]", "Compound metabolized"],
  ["O=c1[nH]c2ccccc2n1CCCN1CCC(n2c(=O)[nH]c3cc(Cl)ccc32)CC1", "Compound NOT metabolized"],
  ["COC(=O)C(c1ccccc1)C1CCCCN1 (centres undefined) [METHYLPHENIDATE]", "Compound NOT metabolized"],
  ["Br.COc1ccc2c(c1)[C@]13CCCC[C@@H]1[C@H](C2)N(C)CC3.O [DEXTROMETHORPHAN HYDROBROMIDE]", "Compound NOT metabolized"],
  ["CCN(CC)C(=O)/C(C#N)=C/c1cc(O)c(O)c([N+](=O)[O-])c1", "Compound metabolized"],
  ["C#C[C@]1(OC(C)=O)CC[C@H]2[C@@H]3CCC4=C[C@@H](OC(C)=O)CC[C@@H]4[C@H]3CC[C@@]21C [ETHYNODIOL DIACETATE]", "Compound NOT metabolized"]
]}

QUERY: Dear colleague, please send me the reported Bacterial Biotransformation for `CCc1nc(N)nc(N)c1-c1ccc(Cl)cc1` when you can.
RESULT: Compound NOT metabolized

QUERY: Dear colleague, please send me the reported Bacterial Biotransformation for CCCC1O[C@@H]2C[C@H]3[C@@H]4CCC5=CC(=O)C=C[C@]5(C)[C@H]4[C@@H](O)C[C@]3(C)[C@]2(C(=O)CO)O1 (some centres undefined) [BUDESONIDE] when you can.
RESULT: Compound NOT metabolized

QUERY: Dear colleague, please send me the reported Bacterial Biotransformation for CC(=O)SCC(Cc1ccccc1)C(=O)NCC(=O)OCc1ccccc1 (centres undefined) when you can.
RESULT: Compound NOT metabolized

QUERY: Dear colleague, please send me the reported Bacterial Biotransformation for `Nc1nc2ccc(OC(F)(F)F)cc2s1` when you can.
RESULT: Compound NOT metabolized

QUERY: Dear colleague, please send me the reported Bacterial Biotransformation for `Clc1ccc(Cn2c(CN3CCCC3)nc3ccccc32)cc1` when you can.
RESULT: Compound NOT metabolized

QUERY: Dear colleague, please send me the reported Bacterial Biotransformation for CN(C)C(=O)Oc1cccc([N+](C)(C)C)c1.[Br-] [NEOSTIGMINE BROMIDE] when you can.
RESULT: Compound NOT metabolized

QUERY: Dear colleague, please send me the reported Bacterial Biotransformation for `Cc1nc2n(c(=O)c1CCN1CCC(c3noc4cc(F)ccc34)CC1)CCCC2` when you can.
RESULT: Compound NOT metabolized

QUERY: Dear colleague, please send me the reported Bacterial Biotransformation for CNCCC(Oc1ccc(C(F)(F)F)cc1)c1ccccc1 (centres undefined) when you can.
RESULT: Compound metabolized

Value source: ChEMBL document CHEMBL5303573
